Every entry's value here was drawn from paper PMC4977564.

target: recombinant Mtb-DapA (Mtb-rDapA) (Mycobacterium tuberculosis); test: biochemical; conditions: IC50 of α-KPA, pyruvate 0.3 mM, ASA 400 μM, 50 min from start
QUANTITY NAME: IC50 (µM)
Field format: number, assumed µM, no unit text.

Ask: Dear colleague, I am looking for the recorded IC50 of the following compound: O=C(O)CCCCC(=O)C(=O)O
Reply: 41

---

target: recombinant Mtb-DapA (Mtb-rDapA) (Mycobacterium tuberculosis); assay: biochemical
QUANTITY NAME: Ki
Give the figure together with its unit, number first.

Ask: Dear colleague, I am looking for the recorded Ki of the following molecule: O=C(O)CCCCC(=O)C(=O)O
Reply: 32.5 µM

---

biological target: recombinant Mtb-DapA (Mtb-rDapA) (Mycobacterium tuberculosis, UniProt P9WP25); experiment: biochemical; conditions: IC50 of α-KPA, pyruvate 2 mM, ASA 400 μM, 60 min from start
Sequence (P9WP25 whole entry, looked up): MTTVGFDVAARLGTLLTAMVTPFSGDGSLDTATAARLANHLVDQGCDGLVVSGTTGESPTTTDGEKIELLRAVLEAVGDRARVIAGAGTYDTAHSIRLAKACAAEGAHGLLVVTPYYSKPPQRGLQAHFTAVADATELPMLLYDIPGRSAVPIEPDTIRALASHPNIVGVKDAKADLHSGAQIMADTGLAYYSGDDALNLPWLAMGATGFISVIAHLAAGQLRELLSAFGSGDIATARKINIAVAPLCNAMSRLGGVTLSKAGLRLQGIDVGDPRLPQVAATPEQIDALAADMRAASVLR
QUANTITY NAME: pIC50
Scale explanation: pIC50 corresponds to minus log10 of a concentration expressed in moles per litre.

Ask: # get_value(readout= pIC50, system= recombinant Mtb-DapA (Mtb-rDapA) (Mycobacterium tuberculosis, UniProt P9WP25)) for O=C(O)CCCCC(=O)C(=O)O
Reply: 4.00

---

biological target: recombinant Mtb-DapA (Mtb-rDapA) (Mycobacterium tuberculosis); assay: biochemical; settings: IC50 of α-KPA, pyruvate 1 mM, ASA 400 μM, 20 min from start
QUANTITY NAME: pIC50
Scale explanation: pIC50 corresponds to minus log10 of a concentration expressed in moles per litre.

Ask: Dear colleague, I am looking for the recorded pIC50 of the following molecule: O=C(O)CCCCC(=O)C(=O)O [compound 1, 2-oxoheptanedioic acid]
Reply: 4.68

---

biological target: recombinant Mtb-DapA (Mtb-rDapA) (Mycobacterium tuberculosis); test: biochemical; conditions: IC50 of α-KPA, pyruvate 0.17 mM, ASA 400 μM, 30 min from start
QUANTITY NAME: IC50 (µM)
Field format: number, assumed µM, no unit text.

Ask: Dear colleague, I am looking for the recorded IC50 of the following molecule: O=C(O)CCCCC(=O)C(=O)O
Reply: 21

---

target: recombinant Mtb-DapA (Mtb-rDapA) (Mycobacterium tuberculosis); assay: biochemical; details: IC50 of α-KPA, pyruvate 0.3 mM, ASA 400 μM, 60 min from start
QUANTITY NAME: IC50
Give the figure together with its unit, number first.

Ask: Dear colleague, I am looking for the recorded IC50 of the following molecule: O=C(O)CCCCC(=O)C(=O)O
Reply: 51 µM

---

molecular target: recombinant Mtb-DapA (Mtb-rDapA) (Mycobacterium tuberculosis, UniProt P9WP25); experiment: biochemical; settings: IC50 of α-KPA, pyruvate 2 mM, ASA 400 μM, 50 min from start
QUANTITY NAME: pIC50
Scale explanation: pIC50 corresponds to minus log10 of a concentration expressed in moles per litre.

Ask: # get_value(readout= pIC50, system= recombinant Mtb-DapA (Mtb-rDapA) (Mycobacterium tuberculosis, UniProt P9WP25)) for O=C(O)CCCCC(=O)C(=O)O [compound 1, 2-oxoheptanedioic acid]
Reply: 4.04
